Values of pIC50 for Fibroblast growth factor receptor 2 (Homo sapiens, UniProt P21802), collected from a number of published sources:
pIC50: −log10 of the molar value.

Query string: Quick check: pIC50 of COc1ccc(C(=O)NC[C@H](O)CO)cc1/C=C/c1ccc(Cl)cc1 ?
Result string: < 4.30

Query string: And what about the compound O=[N+]([O-])c1ccc(Cl)nc1Nc1ncc(C(F)(F)F)cc1Cl ?
Result string: < 5.00

Query string: // query: COCCNc1cc(NC(=O)N2CCCc3ccc(C(=O)C(F)(F)F)nc32)ncc1C#N
Result string: < 5.00

Query string: Subsequent entry: CC(C)Oc1cc(NC(=O)N2CCCc3ccc(C=O)nc32)ncc1C#Cc1cccnc1
Result string: < 5.00

Query string: Cool, now COc1cc2c(Oc3ccc(Nc4ccc(C(C)(C)C)cc4)cc3)ccnc2cc1OCCCN1CCCCC1
Result string: 6.46

Query string: Then COc1cccc(CCc2cnc(NC(=O)N3CCCc4ccc(C=O)nc43)cc2OC(C)C)c1 ?
Result string: < 5.00

Query string: Again, but for Cc1n[nH]c2ccc(-c3cc(NCCCO)cnc3-c3cc(F)ccc3O)cc12
Result string: < 6.00

Query string: Another compound to check: C=CC(=O)NCCCn1c(=O)c(-c2c(Cl)c(OC)cc(OC)c2Cl)cc2cnc(Nc3c(C)cccc3NC(=O)C=C)cc21
Result string: 6.28

Query string: Follow-up item: COCCNc1cc(NC(=O)N2CCCc3ccc(C=O)nc32)ncc1C#Cc1cccnc1
Result string: < 5.00

---

Here is a set of compounds with reported IC50 for Fibroblast growth factor receptor 2 (Homo sapiens, UniProt P21802), compiled from the literature.

Query string: Could you share which IC50 value was measured for COc1cc2c(Oc3ccc(-c4cnc(Cc5ccccc5)n(C)c4=O)cc3F)ccnc2cc1OCCCN1CCOCC1 ?
Result string: > 1 µM

Query string: Can you handle CC(C)Oc1cc(N2CCC(N3CCN(C)CC3)CC2)ccc1Nc1ncc(Cl)c(Nc2ccccc2S(=O)(=O)C(C)C)n1 next?
Result string: 4.43 µM

Query string: Item: C=CC(=O)N[C@H]1CCCC[C@H]1Nc1n[nH]c2ccc(O[C@H](C)c3c(Cl)cncc3Cl)cc12
Result string: > 10 µM

Query string: Follow-up item: COc1cc(NC(=O)N2CCCc3ccc(C(=O)C(F)(F)F)nc32)ncc1C#N
Result string: > 10 µM

Query string: Follow-up entry: CC(C)Oc1cc(NC(=O)N2CCCc3ccc(C=O)nc32)ncc1C#Cc1ccccn1
Result string: > 10 µM

Query string: Same thing, different compound: CC(C)Oc1cc(NC(=O)N2CCCc3ccc(C(=O)C(F)(F)F)nc32)ncc1C#N
Result string: > 10 µM

Query string: Try this compound next: N#Cc1cnc(NC(=O)N2CCCc3ccc(C(=O)C(F)(F)F)nc32)cc1OC1CCCC1
Result string: > 10 µM

Query string: Follow-up item: CCC(=O)Nc1ccccc1Nc1n[nH]c2ccc(O[C@H](C)c3c(Cl)cncc3Cl)cc12
Result string: > 10 µM

Query string: Input C=CC(=O)N1CC[C@@H](Nc2n[nH]c3ccc(O[C@H](C)c4c(Cl)cncc4Cl)cc23)C1
Result string: > 10 µM

---

Target or system Fibroblast growth factor receptor 2 (Homo sapiens); metric IC50; compiled from varied reports.
Flag rule - IC50 less than 3 nM flags 1; the remaining entries get -1.

Query string: For this compound, is IC50 lower than 3 nM? COc1ccc(C(=O)NC[C@@H](O)CO)cc1/C=C/c1ccc(Cl)cc1
Result string: -1

Query string: Moving on to the next compound: C=CC(=O)N1CC[C@H](n2nc(C(=O)Nc3cc(OC)cc(OC)c3)c3c(N)ncnc32)C1
Result string: -1

Query string: Same question, Cc1n[nH]c2ccc(-c3cc(N[C@@H](CO)c4ccccc4)cnc3-c3cc(F)ccc3O)cc12 this time
Result string: 1

Query string: And what about the compound Cc1n[nH]c2ccc(-c3cc(N[C@@H](CO)c4ccccc4)cnc3-c3cccnc3)cc12 ?
Result string: -1

Query string: Would you mind doing COc1cc(OC)cc(N(CCNC(C)C)c2ccc3ncc(-c4cnn(CCOc5ccc(C(=O)NO)cc5)c4)nc3c2)c1 as well?
Result string: 1

Query string: How about COc1cc2nccc(Oc3ccc(C(=O)c4ccc(C(C)(C)C)cc4)cc3)c2cc1OC ?
Result string: -1

Query string: Next up: Cc1n[nH]c2ccc(-c3cc(N[C@@H](CO)c4ccccc4)cnc3-c3cccc4cccnc34)cc12
Result string: -1

Query string: Please give the result for C=CC(=O)N1CCC(c2cc3c(Oc4ccc(NC(=O)NC5CC5)c(Cl)c4)ccnc3cc2OC)CC1 too.
Result string: -1

Query string: Likewise for C=CC(=O)Nc1ccc(OC)cc1Nc1n[nH]c2ccc(O[C@H](C)c3c(Cl)cncc3Cl)cc12 ?
Result string: -1
